testTarget: CFTR-G1349D (Homo sapiens, UniProt P13569, G1349D)
Construct: expressed in transfected cells
Sequence (P13569 whole entry G1349D): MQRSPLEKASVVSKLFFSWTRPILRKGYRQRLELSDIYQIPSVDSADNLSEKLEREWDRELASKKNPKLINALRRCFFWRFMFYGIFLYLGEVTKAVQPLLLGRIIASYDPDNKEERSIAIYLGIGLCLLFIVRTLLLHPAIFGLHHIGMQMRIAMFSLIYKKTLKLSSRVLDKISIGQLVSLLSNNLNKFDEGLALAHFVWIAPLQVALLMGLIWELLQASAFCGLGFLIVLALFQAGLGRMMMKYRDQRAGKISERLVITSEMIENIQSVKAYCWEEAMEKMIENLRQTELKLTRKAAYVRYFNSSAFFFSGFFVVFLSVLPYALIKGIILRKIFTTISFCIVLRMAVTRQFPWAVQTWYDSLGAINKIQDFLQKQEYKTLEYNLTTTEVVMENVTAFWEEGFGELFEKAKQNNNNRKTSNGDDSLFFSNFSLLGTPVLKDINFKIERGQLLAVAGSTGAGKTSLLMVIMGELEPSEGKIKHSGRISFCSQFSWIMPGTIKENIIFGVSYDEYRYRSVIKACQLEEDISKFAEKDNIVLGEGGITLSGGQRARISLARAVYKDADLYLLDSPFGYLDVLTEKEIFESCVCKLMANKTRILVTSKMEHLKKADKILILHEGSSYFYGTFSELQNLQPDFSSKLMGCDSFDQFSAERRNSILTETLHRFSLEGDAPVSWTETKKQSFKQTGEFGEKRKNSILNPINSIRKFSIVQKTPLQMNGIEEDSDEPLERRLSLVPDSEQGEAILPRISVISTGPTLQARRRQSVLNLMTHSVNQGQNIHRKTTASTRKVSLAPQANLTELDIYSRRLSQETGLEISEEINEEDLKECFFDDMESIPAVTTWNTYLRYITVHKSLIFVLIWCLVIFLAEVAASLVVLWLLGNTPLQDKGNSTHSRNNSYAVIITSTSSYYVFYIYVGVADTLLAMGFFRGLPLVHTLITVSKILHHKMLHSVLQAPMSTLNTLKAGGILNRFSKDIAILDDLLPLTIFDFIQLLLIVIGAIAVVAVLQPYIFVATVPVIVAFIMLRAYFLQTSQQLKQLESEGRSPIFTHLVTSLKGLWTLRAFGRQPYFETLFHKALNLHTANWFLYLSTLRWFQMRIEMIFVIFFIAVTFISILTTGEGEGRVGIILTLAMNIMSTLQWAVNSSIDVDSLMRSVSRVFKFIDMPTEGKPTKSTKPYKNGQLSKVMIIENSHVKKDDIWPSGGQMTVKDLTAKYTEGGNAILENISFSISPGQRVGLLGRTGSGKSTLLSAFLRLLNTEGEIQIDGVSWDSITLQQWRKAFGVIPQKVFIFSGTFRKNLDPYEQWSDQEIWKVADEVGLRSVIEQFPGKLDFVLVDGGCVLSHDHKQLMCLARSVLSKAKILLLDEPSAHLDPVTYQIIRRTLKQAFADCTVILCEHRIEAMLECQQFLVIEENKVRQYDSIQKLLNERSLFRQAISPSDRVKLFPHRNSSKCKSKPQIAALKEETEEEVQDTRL
experimentNotes: YFP-halide influx assay for the CFTR-G1349D
Format: cell-based
testSettings: CFTR-G1349D mutant; read-out: EC50 measured by YFP-halide influx assay for the CFTR-G1349D
Labels assigned by EC50 range: bucket 1: < 60 nM; bucket 2: ≥ 60 nM and < 100 nM; bucket 3: ≥ 100 nM

Look over these answered cases.
Into which category would you place "Cc1[nH]nc(C(=O)Nc2sc3c(c2C(N)=O)CC(C)(C)OC3(C)C)c1Cl" ?
bucket 1

Into which category would you place "COCc1[nH]nc(C(=O)Nc2sc3c(c2C(N)=O)CC(C)(C)OC3(C)C)c1Cl" ?
bucket 2

Into which category would you place "CC1(C)Cc2c(sc(NC(=O)c3n[nH]cc3C3=CCOCC3)c2C(N)=O)C(C)(C)O1" ?
bucket 3

Into which category would you place "Cc1cn[nH]c1C(=O)Nc1sc2c(c1C(N)=O)CC(C)(C)OC2(C)C" ?
bucket 3

Into which category would you place CC1(C)Cc2c(sc(NC(=O)c3n[nH]cc3C3COCCO3)c2C(N)=O)C(C)(C)O1 (stereo not shown) ?
bucket 2

Into which category would you place CC1(C)Cc2c(sc(NC(=O)C(O)C(C)(C)C)c2C(N)=O)C(C)(C)O1 (stereo not shown) ?
bucket 3

Into which category would you place "CC1(C)Cc2c(sc(NC(=O)c3ccn[nH]3)c2C(N)=O)C(C)(C)O1" ?
bucket 2

We now examine a further compound.
Into which category would you place "CC1(C)Cc2c(sc(NC(=O)[C@@H](O)CC3CC3)c2C(N)=O)C(C)(C)O1" ?
bucket 1

----------
Record form. Attribute: pEC50. Fill in for each entry.
testTarget: CFTR ΔF508 mutant (Homo sapiens, UniProt P13569, DEL508-508)
Construct: expressed in transfected cells; host or cells: CFBE41o- (adenoviral transduction)
Sequence (P13569 with tags, fused parts or gaps DEL508-508): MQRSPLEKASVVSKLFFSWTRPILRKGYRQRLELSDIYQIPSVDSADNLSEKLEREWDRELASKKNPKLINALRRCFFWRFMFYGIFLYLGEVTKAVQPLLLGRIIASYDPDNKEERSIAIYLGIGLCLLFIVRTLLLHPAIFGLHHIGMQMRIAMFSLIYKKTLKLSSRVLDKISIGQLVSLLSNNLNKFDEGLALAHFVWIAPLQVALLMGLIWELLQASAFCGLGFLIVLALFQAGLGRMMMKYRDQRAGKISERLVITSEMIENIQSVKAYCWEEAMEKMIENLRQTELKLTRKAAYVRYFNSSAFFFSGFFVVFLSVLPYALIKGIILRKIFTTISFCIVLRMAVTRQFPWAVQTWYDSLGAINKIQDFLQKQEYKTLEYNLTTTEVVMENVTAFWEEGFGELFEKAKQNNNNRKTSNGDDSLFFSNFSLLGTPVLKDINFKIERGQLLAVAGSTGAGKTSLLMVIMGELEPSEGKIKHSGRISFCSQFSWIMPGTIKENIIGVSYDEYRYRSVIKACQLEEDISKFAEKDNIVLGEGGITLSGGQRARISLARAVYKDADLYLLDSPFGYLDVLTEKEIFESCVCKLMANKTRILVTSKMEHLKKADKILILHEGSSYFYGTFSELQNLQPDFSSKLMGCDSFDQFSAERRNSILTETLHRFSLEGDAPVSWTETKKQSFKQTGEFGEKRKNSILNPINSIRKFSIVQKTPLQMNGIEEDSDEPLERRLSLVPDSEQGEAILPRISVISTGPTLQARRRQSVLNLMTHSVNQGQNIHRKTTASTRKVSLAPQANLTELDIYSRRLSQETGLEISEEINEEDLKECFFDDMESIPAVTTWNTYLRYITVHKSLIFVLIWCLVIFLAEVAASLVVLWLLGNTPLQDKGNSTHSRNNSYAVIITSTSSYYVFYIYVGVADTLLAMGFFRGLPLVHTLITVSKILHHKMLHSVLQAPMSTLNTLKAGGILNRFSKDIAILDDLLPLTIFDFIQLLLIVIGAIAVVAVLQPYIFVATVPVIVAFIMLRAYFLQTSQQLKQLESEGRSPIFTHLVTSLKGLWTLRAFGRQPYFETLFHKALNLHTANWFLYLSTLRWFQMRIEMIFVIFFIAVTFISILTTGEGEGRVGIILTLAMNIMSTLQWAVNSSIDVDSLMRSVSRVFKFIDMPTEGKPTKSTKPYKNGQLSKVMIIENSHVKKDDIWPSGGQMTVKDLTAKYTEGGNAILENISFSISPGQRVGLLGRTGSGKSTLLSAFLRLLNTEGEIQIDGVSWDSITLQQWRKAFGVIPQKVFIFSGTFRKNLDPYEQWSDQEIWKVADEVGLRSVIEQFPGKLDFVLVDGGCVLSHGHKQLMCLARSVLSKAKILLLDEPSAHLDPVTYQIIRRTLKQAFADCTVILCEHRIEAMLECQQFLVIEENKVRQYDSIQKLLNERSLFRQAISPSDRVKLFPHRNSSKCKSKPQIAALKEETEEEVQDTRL
experimentNotes: YFP-halide influx assay for the CFTR-ΔF508 mutation (384 well, CFBE41o- cells, FDSS/μCell)
Type: cell-based
testSettings: forskolin 10.67 μM, fluorescence after 36 seconds, read-out: EC50 measured by YFP-halide influx assay for the CFTR-ΔF508
One number for each entry, as −log10 of the molar value.

Below, 5 compounds whose answers are already recorded.
Recorded pEC50 for CC(C)c1cc(C(=O)Nc2sc3c(c2C(N)=O)CC(C)(C)OC3(C)C)n[nH]1 [Compound 14] with CFTR ΔF508 mutant (Homo sapiens, UniProt P13569, DEL508-508), please?
8.03

Recorded pEC50 for CC1(C)Cc2c(sc(NC(=O)c3ccccc3OC(F)F)c2C(N)=O)C(C)(C)O1 [Compound 113] with CFTR ΔF508 mutant (Homo sapiens, UniProt P13569, DEL508-508), please?
7.11

Recorded pEC50 for CC(C)C(O)CC(=O)Nc1sc2c(c1C(N)=O)CC(C)(C)OC2(C)C (centres unmarked) [Compound 67] with CFTR ΔF508 mutant (Homo sapiens, UniProt P13569, DEL508-508), please?
7.37

Recorded pEC50 for CC1(C)Cc2c(sc(NC(=O)c3cnc4c(c3)OCCO4)c2C(N)=O)C(C)(C)O1 [Compound 145] with CFTR ΔF508 mutant (Homo sapiens, UniProt P13569, DEL508-508), please?
6.81

Recorded pEC50 for CCC(O)C(=O)Nc1sc2c(c1C(N)=O)CC(C)(C)OC2(C)C (centres unmarked) [Compound 53] with CFTR ΔF508 mutant (Homo sapiens, UniProt P13569, DEL508-508), please?
8.00

Please give pEC50, item by item, for the list that follows.
1. CC1(C)Cc2c(sc(NC(=O)CC(O)C(F)(F)F)c2C(N)=O)C(C)(C)O1 (centres unmarked) [Compound 69]
2. CCc1[nH]nc(C(=O)Nc2sc3c(c2C(N)=O)CC(C)(C)OC3(C)C)c1Cl [Compound 36]
3. CC1(C)Cc2c(sc(NC(=O)C(C)(C)O)c2C(N)=O)C(C)(C)O1 [Compound 6]
4. COCc1[nH]nc(C(=O)Nc2sc3c(c2C(N)=O)CC(C)(C)OC3(C)C)c1Cl [Compound 50]
5. CC1(C)Cc2c(sc(NC(=O)c3ccccc3-c3ncc[nH]3)c2C(N)=O)C(C)(C)O1 [Compound 27]
6. CC(O)C(=O)Nc1sc2c(c1C(N)=O)CC(C)(C)OC2(C)C (centres unmarked) [Compound 22]
7. CC1(C)Cc2c(sc(NC(=O)c3n[nH]cc3CO)c2C(N)=O)C(C)(C)O1 [Compound 88]

7.47
7.91
7.79
7.97
6.72
7.08
6.84

----------
Record form. Attribute: pEC50. Fill in for each entry.
testTarget: CFTR ΔF508 mutant (Homo sapiens, UniProt P13569, DEL508-508)
Construct: expressed in transfected cells; host or cells: CFBE41o- (adenoviral transduction)
experimentNotes: YFP-halide influx assay for the CFTR-ΔF508 mutation (96 well, CFBE41o- cells)
Assay type: cell-based
testSettings: comparative compounds, read-out: EC50 measured by YFP-halide influx assay for the CFTR-ΔF508
pEC50: −log10 of the molar value.

Please give pEC50, item by item, for the list that follows.
1. NC(=O)c1c(NC(=O)c2ccccc2Cl)sc2c1CCCC2 [B, reference compound]
2. NC(=O)c1c(NC(=O)c2ccccc2O)sc2c1CCNC2 [C, reference compound]
3. CN1CCc2c(sc(NC(=O)c3ccccc3O)c2C(N)=O)C1 [A, reference compound]

1: > 6.43; 2: < 5.00; 3: < 5.00

----------
testTarget: CFTR ΔF508 mutant (Homo sapiens, UniProt P13569, DEL508-508)
Construct: expressed in transfected cells; host or cells: CFBE41o- (adenoviral transduction)
experimentNotes: YFP-halide influx assay for the CFTR-ΔF508 mutation (384 well, CFBE41o- cells, FDSS/μCell)
Format: cell-based
testSettings: forskolin 10.67 μM, fluorescence after 36 seconds, read-out: EC50 measured by YFP-halide influx assay for the CFTR-ΔF508
Record form. Attribute: pEC50. Fill in for each entry.
Give bare numbers, as −log10 of the molar value.

Below, 5 compounds whose answers are already recorded.
Quick one: pEC50 for CC(C)C(O)C(=O)Nc1sc2c(c1C(N)=O)CC(C)(C)OC2(C)C (single isomer, unassigned) [Compound 52] ?
8.71

Quick one: pEC50 for "CC1(C)Cc2c(sc(NC(=O)c3n[nH]cc3C#N)c2C(N)=O)C(C)(C)O1" ?
7.68

Quick one: pEC50 for "CC1(C)Cc2c(sc(NC(=O)c3ccccc3F)c2C(N)=O)C(C)(C)O1" ?
7.18

Quick one: pEC50 for "Cc1cn[nH]c1C(=O)Nc1sc2c(c1C(N)=O)CC(C)(C)OC2(C)C" ?
8.61

Quick one: pEC50 for "CC1(C)Cc2c(sc(NC(=O)c3cccnc3F)c2C(N)=O)C(C)(C)O1" ?
6.37

Please give pEC50, item by item, for the list that follows.
1. CC1(C)Cc2c(sc(NC(=O)C(O)C3CC3)c2C(N)=O)C(C)(C)O1 (stereo not shown)
2. CC1(C)Cc2c(sc(NC(=O)c3cccc(F)n3)c2C(N)=O)C(C)(C)O1

1: 7.73; 2: 6.63

----------
testTarget: CFTR-S549N (Homo sapiens, UniProt P13569, S549N)
Construct: expressed in transfected cells
Sequence (P13569 whole entry S549N): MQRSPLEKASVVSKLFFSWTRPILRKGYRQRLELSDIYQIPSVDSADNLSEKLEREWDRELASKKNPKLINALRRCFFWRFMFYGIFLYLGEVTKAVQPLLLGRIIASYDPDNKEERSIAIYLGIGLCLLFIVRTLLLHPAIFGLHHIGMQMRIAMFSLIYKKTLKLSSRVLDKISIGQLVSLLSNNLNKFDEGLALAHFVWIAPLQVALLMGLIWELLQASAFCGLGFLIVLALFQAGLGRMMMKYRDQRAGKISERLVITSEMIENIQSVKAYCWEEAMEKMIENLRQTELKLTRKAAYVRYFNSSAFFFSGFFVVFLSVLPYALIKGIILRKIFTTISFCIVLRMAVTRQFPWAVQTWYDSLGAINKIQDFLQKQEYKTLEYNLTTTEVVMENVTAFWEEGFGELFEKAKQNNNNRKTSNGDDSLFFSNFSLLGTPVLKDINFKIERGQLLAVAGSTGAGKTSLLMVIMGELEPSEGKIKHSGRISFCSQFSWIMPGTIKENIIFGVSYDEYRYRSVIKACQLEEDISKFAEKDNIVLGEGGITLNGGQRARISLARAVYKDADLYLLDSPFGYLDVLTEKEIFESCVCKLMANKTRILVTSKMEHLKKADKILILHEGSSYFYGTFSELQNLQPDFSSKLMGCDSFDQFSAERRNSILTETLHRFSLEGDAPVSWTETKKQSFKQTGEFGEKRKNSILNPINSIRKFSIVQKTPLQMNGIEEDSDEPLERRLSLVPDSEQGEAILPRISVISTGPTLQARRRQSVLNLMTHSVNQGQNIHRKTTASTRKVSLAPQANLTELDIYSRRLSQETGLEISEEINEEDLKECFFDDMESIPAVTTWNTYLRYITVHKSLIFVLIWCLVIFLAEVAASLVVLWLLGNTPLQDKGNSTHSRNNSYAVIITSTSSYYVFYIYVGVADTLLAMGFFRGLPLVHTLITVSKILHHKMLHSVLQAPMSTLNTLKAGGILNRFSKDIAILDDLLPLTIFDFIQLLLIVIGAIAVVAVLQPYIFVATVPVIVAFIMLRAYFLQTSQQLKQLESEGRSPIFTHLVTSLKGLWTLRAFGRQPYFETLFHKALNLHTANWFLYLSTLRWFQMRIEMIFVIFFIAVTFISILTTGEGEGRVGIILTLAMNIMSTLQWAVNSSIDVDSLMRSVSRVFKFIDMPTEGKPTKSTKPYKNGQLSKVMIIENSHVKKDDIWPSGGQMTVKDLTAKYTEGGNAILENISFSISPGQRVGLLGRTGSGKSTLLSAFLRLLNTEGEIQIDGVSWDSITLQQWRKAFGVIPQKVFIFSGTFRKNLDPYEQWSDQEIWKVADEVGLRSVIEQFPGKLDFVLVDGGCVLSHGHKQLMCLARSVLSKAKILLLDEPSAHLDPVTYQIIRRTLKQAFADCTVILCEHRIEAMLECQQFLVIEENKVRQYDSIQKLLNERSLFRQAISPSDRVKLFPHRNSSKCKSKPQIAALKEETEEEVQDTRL
experimentNotes: YFP-halide influx assay for the CFTR-S549N
Type: cell-based
testSettings: CFTR-S549N mutant; read-out: EC50 measured by YFP-halide influx assay for the CFTR-S549N
Record form. Attribute: pEC50. Fill in for each entry.
Answers are plain numbers, as −log10 of the molar value.

Quick one: pEC50 for "CC1(C)Cc2c(sc(NC(=O)[C@H](O)C(C)(C)C)c2C(N)=O)C(C)(C)O1" ?
5.84

Quick one: pEC50 for "CC1(C)Cc2c(sc(NC(=O)c3ccn(CC(F)(F)F)n3)c2C(N)=O)C(C)(C)O1" ?
6.22

Quick one: pEC50 for CC(C)(C)CC(O)C(=O)Nc1sc2c(c1C(N)=O)CC(C)(C)OC2(C)C (stereo not drawn) [Compound 106] ?
7.66

Quick one: pEC50 for CC(C)CC(O)C(=O)Nc1sc2c(c1C(N)=O)CC(C)(C)OC2(C)C (stereo not drawn) ?
6.85

Quick one: pEC50 for "CC1(C)Cc2c(sc(NC(=O)c3n[nH]cc3C3=COCCO3)c2C(N)=O)C(C)(C)O1" ?
6.46

Please give pEC50, item by item, for the list that follows.
1. Cc1[nH]nc(C(=O)Nc2sc3c(c2C(N)=O)CC(C)(C)OC3(C)C)c1Cl
2. COCc1cc(C(=O)Nc2sc3c(c2C(N)=O)CC(C)(C)OC3(C)C)n[nH]1
3. CC(C)OCCOc1c[nH]nc1C(=O)Nc1sc2c(c1C(N)=O)CC(C)(C)OC2(C)C
4. CC1(C)Cc2c(sc(NC(=O)[C@@H](O)CC3CC3)c2C(N)=O)C(C)(C)O1
5. CC1(C)Cc2c(sc(NC(=O)C3(CO)CC3)c2C(N)=O)C(C)(C)O1
6. COCc1c[nH]nc1C(=O)Nc1sc2c(c1C(N)=O)CC(C)(C)OC2(C)C
7. CCCc1c[nH]nc1C(=O)Nc1sc2c(c1C(N)=O)CC(C)(C)OC2(C)C

1. 6.35
2. 6.29
3. 6.02
4. 7.14
5. 6.04
6. 6.53
7. 6.71

Please give pEC50, item by item, for the list that follows.
1. CC1(C)Cc2c(sc(NC(=O)C3(O)CCOCC3)c2C(N)=O)C(C)(C)O1
2. CC1(C)Cc2c(sc(NC(=O)C(O)C(C)(C)C)c2C(N)=O)C(C)(C)O1 (stereo not drawn)
3. CC1(C)Cc2c(sc(NC(=O)c3cc(C4CC4)[nH]n3)c2C(N)=O)C(C)(C)O1

5.62
6.16
6.80
